For each record, write down the corresponding bioavailability.
ASSAY_PROCEDURE: Pharmacokinetic studies in CD-1 mice
STUDY_CONDITIONS: Swiss albino CD-1, mouse, whole blood, po, 12.5 mg/kg, F, CD‐1 mice, 12.5 mg·kg^−1 i.v. and p.o.
Provide only the numeric value, understood in %.

Item under review: CC[C@H]1OC(=O)[C@H](C)[C@@H](O[C@H]2C[C@@](C)(OC)[C@@H](O)[C@H](C)O2)[C@H](C)[C@@H](O[C@@H]2O[C@H](C)C[C@H](N(C)C)[C@H]2O)[C@](C)(O)C[C@@H](C)CN(CCCNc2ccnc3cc(Cl)ccc23)[C@H](C)[C@@H](O)[C@]1(C)O . Reported bioavailability?
4

Item under review: CC[C@H]1OC(=O)[C@H](C)[C@@H](O[C@H]2C[C@@](C)(OC)[C@@H](O)[C@H](C)O2)[C@H](C)[C@@H](O[C@@H]2O[C@H](C)C[C@H](N(C)C)[C@H]2O)[C@](C)(O)C[C@@H](C)CN(C)[C@H](C)[C@@H](O)[C@]1(C)O [Azithromycin, reference compound] . Reported bioavailability?
61

Item under review: CC[C@H]1OC(=O)[C@H](C)[C@@H](O)[C@H](C)[C@@H](O[C@@H]2O[C@H](C)C[C@H](N(C)C)[C@H]2OCCCNc2ccnc3ccccc23)[C@](C)(O)C[C@@H](C)CN[C@H](C)[C@@H](O)[C@]1(C)O . Reported bioavailability?
26
